# target-of-assay: mouse TREX1 (Mus musculus, UniProt Q91XB0)
# Construct: N-terminally His-Tev tagged full length mouse TREX1
# Sequence (Q91XB0 whole entry): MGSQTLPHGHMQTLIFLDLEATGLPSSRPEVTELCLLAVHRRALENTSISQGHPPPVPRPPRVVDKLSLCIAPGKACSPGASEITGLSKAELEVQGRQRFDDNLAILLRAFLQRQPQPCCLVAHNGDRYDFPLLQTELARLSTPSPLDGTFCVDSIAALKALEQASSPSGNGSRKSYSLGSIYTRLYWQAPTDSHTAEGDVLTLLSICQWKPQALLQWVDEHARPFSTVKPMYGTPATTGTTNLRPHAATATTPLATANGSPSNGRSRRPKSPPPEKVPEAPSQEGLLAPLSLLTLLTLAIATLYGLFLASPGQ
# protocol-notes: mTREX1 Biochemical Assay (fluorescence, dsDNA substrate degradation)
# condition-info: full length mouse TREX1, 4 h pre-incubation, 18 h reaction at 25° C.
The compounds listed here are annotated with their IC50.

Observe how each entry below is paired with its result.
{"columns": ["compound", "observed-property", "experimental-result"],
 "data": [
  ["Cn1c([C@@H](C(c2ccccc2C#N)c2ccccc2C#N)C(F)(F)F)nc(C(=O)Nc2cnoc2)c(O)c1=O (single isomer, unassigned) [Example 21 Isomer 1]", "IC50", "0.001 to 0.01 µM"],
  ["CC(c1nc(C(=O)Nc2cnoc2)c(O)c(=O)n1C)C(c1ccccc1)c1ccccc1C#N (single isomer, unassigned) [Example 3 Isomer 1]", "IC50", "> 0.01 µM"],
  ["CC(c1nc(C(=O)Nc2cnoc2)c(O)c(=O)n1C)C(c1ccc(F)c(F)c1)c1ccccc1C#N (single isomer, unassigned) [Example 12 Isomer 2]", "IC50", "> 0.01 µM"],
  ["Cn1c([C@H](C(c2ccccc2)c2ccccc2)C(F)(F)F)nc(C(=O)Nc2cnoc2)c(O)c1=O (single isomer, unassigned) [Example 20 Isomer 1]", "IC50", "> 0.01 µM"]
]}

# input Record request: IC50 value, item C[C@H](c1nc(C(=O)Nc2cnoc2)c(O)c(=O)n1C)[C@H](c1ccccc1)c1ccccc1C(F)(F)F (single isomer, unassigned) [Example 14 Isomer 1]
# output > 0.01 µM

* * *

# target-of-assay: human TREX1 (Homo sapiens, UniProt Q9NSU2)
# Construct: N-terminally His-Tev tagged full length human TREX1
# Sequence (Q9NSU2 whole entry): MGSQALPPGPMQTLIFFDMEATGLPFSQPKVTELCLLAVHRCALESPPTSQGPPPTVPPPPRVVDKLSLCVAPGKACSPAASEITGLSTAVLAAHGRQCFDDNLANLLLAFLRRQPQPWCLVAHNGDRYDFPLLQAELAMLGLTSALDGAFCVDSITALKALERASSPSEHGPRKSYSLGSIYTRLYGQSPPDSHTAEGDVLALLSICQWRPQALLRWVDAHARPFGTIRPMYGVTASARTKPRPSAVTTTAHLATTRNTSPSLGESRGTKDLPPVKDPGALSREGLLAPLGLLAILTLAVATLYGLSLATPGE
# protocol-notes: hTREX1 Biochemical Assay (fluorescence, dsDNA substrate degradation)
# condition-info: full length human TREX1, 4 h pre-incubation, 18 h reaction at 25° C.
observed-property: IC50

Observe how each entry below is paired with its result.
{"columns": ["compound", "IC50"],
 "data": [
  ["Cn1c([C@@H](C(c2ccccc2C#N)c2ccccc2C#N)C(F)(F)F)nc(C(=O)Nc2cnoc2)c(O)c1=O (single isomer, unassigned) [Example 21 Isomer 1]", "< 1 nM"],
  ["CC(c1nc(C(=O)Nc2cnoc2)c(O)c(=O)n1C)C(c1ccccc1)c1cc(C(=O)N(C)C)ccc1C#N (single isomer, unassigned) [Example 17 Isomer 4]", "10 to 100 nM"],
  ["CC(c1nc(C(=O)Nc2cnoc2)c(O)c(=O)n1C)C(c1cc(F)cc(F)c1)c1ccccc1C#N (single isomer, unassigned) [Example 11 Isomer 2]", "1 to 10 nM"],
  ["C[C@H](c1nc(C(=O)Nc2cnoc2)c(O)c(=O)n1C)[C@H](c1ccccc1)c1ccc(C(=O)N(C)C)cc1C#N (single isomer, unassigned) [Example 16 Isomer 2]", "> 100 nM"],
  ["CC(c1nc(C(=O)Nc2cnoc2)c(O)c(=O)n1C)C(c1ccc(F)cc1F)c1ccccc1C#N (single isomer, unassigned) [Example 13 Isomer 3]", "10 to 100 nM"]
]}

# input Record request: IC50 value, item CC(c1nc(C(=O)Nc2cnoc2)c(O)c(=O)n1C)C(c1ccccc1Cl)c1ccccc1C#N (single isomer, unassigned) [Example 10 Isomer 2]
# output 10 to 100 nM

# input Record request: IC50 value, item CC(c1nc(C(=O)Nc2cnoc2)c(O)c(=O)n1C)C(c1ccccc1)c1ccc(F)cc1C#N (single isomer, unassigned) [Example 7 Isomer 4]
# output < 1 nM

# input Record request: IC50 value, item CC(c1nc(C(=O)Nc2cnoc2)c(O)c(=O)n1C)C(c1ccccc1)c1ccc(F)cc1C#N (single isomer, unassigned) [Example 7 Isomer 2]
# output > 100 nM

# input Record request: IC50 value, item CC(c1nc(C(=O)Nc2cnoc2)c(O)c(=O)n1C)C(c1ccccc1C#N)c1ccccc1C#N (single isomer, unassigned) [Example 4 Isomer 2]
# output < 1 nM

# input Record request: IC50 value, item Cn1c(CC(c2ccccc2)c2ccccc2)nc(C(=O)Nc2cnoc2)c(O)c1=O [Example A]
# output > 100 nM

# input Record request: IC50 value, item CC(c1nc(C(=O)Nc2cnoc2)c(O)c(=O)n1C)C(c1ccc(F)c(F)c1)c1ccccc1C#N (single isomer, unassigned) [Example 12 Isomer 1]
# output 1 to 10 nM

# input Record request: IC50 value, item C[C@H](c1nc(C(=O)Nc2cnoc2)c(O)c(=O)n1C)[C@H](c1ccccc1)c1ccccc1C(F)(F)F (single isomer, unassigned) [Example 14 Isomer 4]
# output 1 to 10 nM

* * *

The molecules listed here are annotated with their IC50.
# target-of-assay: human TREX1 (Homo sapiens, UniProt Q9NSU2)
# Construct: N-terminally His-Tev tagged full length human TREX1
# protocol-notes: hTREX1 Biochemical Assay (fluorescence, dsDNA substrate degradation)
# condition-info: full length human TREX1, 4 h pre-incubation, 18 h reaction at 25° C.

Observe how each entry below is paired with its result.
{"columns": ["molecule", "experimental-result"],
 "data": [
  ["CC(c1nc(C(=O)Nc2cnoc2)c(O)c(=O)n1C)C(c1ccccc1)c1cc(Cl)ccc1C#N (single isomer, unassigned) [Example 8 Isomer 4]", "10 to 100 nM"],
  ["CC(c1nc(C(=O)Nc2cnoc2)c(O)c(=O)n1C)C(c1ccc(F)c(F)c1)c1ccccc1C#N (single isomer, unassigned) [Example 12 Isomer 2]", "> 100 nM"],
  ["CC(c1nc(C(=O)Nc2cnoc2)c(O)c(=O)n1C)C(c1ccc(F)c(F)c1)c1ccccc1C#N (single isomer, unassigned) [Example 12 Isomer 4]", "10 to 100 nM"],
  ["Cn1c([C@@H](C(c2ccccc2C#N)c2ccccc2C#N)C(F)(F)F)nc(C(=O)Nc2cnoc2)c(O)c1=O (single isomer, unassigned) [Example 21 Isomer 2]", "10 to 100 nM"],
  ["CC(c1nc(C(=O)Nc2cnoc2)c(O)c(=O)n1C)C(c1ccccc1)c1cc(C(=O)N(C)C)ccc1C#N (single isomer, unassigned) [Example 17 Isomer 3]", "< 1 nM"],
  ["C[C@H](c1nc(C(=O)Nc2cnoc2)c(O)c(=O)n1C)[C@H](c1ccccc1)c1ccccc1Cl (single isomer, unassigned) [Example 2 Isomer 4]", "> 100 nM"]
]}

# input Record request: IC50 value, item CC(c1nc(C(=O)Nc2cnoc2)c(O)c(=O)n1C)C(c1cc(F)cc(F)c1)c1ccccc1C#N (single isomer, unassigned) [Example 11 Isomer 3]
# output < 1 nM

# input Record request: IC50 value, item C[C@H](c1nc(C(=O)Nc2cnoc2)c(O)c(=O)n1C)[C@H](c1ccccc1)c1ccccc1Cl (single isomer, unassigned) [Example 2 Isomer 2]
# output 10 to 100 nM

# input Record request: IC50 value, item `Cn1c(C(F)(F)C(c2ccccc2)c2ccccc2)nc(C(=O)Nc2cnoc2)c(O)c1=O`
# output 10 to 100 nM

# input Record request: IC50 value, item CC(c1nc(C(=O)Nc2cnoc2)c(O)c(=O)n1C)C(c1ccccc1Cl)c1ccccc1C#N (single isomer, unassigned) [Example 10 Isomer 4]
# output < 1 nM

# input Record request: IC50 value, item CC(c1nc(C(=O)Nc2cnoc2)c(O)c(=O)n1C)C(c1ccccc1)c1cc(F)ccc1C#N (single isomer, unassigned) [Example 6 Isomer 1]
# output 1 to 10 nM

# input Record request: IC50 value, item C[C@H](c1nc(C(=O)Nc2cnoc2)c(O)c(=O)n1C)[C@H](c1ccccc1)c1ccc(C(=O)N(C)C)cc1C#N (single isomer, unassigned) [Example 16 Isomer 3]
# output > 100 nM

# input Record request: IC50 value, item Cn1c([C@@H](CF)C(c2ccccc2)c2ccccc2)nc(C(=O)Nc2cnoc2)c(O)c1=O (single isomer, unassigned) [Example 18 Isomer 2]
# output > 100 nM

# input Record request: IC50 value, item CC(c1nc(C(=O)Nc2cnoc2)c(O)c(=O)n1C)C(c1ccccc1)c1cc(F)ccc1C#N (single isomer, unassigned) [Example 6 Isomer 4]
# output < 1 nM

# input Record request: IC50 value, item CC(c1nc(C(=O)Nc2cnoc2)c(O)c(=O)n1C)C(c1ccccc1Cl)c1ccccc1C#N (single isomer, unassigned) [Example 10 Isomer 3]
# output < 1 nM

# input Record request: IC50 value, item C[C@H](c1nc(C(=O)Nc2cnoc2)c(O)c(=O)n1C)C(c1ccccc1Cl)c1ccccc1Cl (single isomer, unassigned) [Example 15 Isomer 2]
# output > 100 nM

# input Record request: IC50 value, item C[C@H](c1nc(C(=O)Nc2cnoc2)c(O)c(=O)n1C)[C@H](c1ccccc1)c1ccc(C(=O)N(C)C)cc1C#N (single isomer, unassigned) [Example 16 Isomer 1]
# output 1 to 10 nM

# input Record request: IC50 value, item CC(c1nc(C(=O)Nc2cnoc2)c(O)c(=O)n1C)C(c1ccccc1Cl)c1ccccc1C#N (single isomer, unassigned) [Example 10 Isomer 1]
# output < 1 nM
